All values here come from PubChem BioAssay (EPA / NIEHS).

system under test: Heat shock factor protein 1 (Homo sapiens) (UniProt Q00613)
Sequence (Q00613 whole entry, looked up): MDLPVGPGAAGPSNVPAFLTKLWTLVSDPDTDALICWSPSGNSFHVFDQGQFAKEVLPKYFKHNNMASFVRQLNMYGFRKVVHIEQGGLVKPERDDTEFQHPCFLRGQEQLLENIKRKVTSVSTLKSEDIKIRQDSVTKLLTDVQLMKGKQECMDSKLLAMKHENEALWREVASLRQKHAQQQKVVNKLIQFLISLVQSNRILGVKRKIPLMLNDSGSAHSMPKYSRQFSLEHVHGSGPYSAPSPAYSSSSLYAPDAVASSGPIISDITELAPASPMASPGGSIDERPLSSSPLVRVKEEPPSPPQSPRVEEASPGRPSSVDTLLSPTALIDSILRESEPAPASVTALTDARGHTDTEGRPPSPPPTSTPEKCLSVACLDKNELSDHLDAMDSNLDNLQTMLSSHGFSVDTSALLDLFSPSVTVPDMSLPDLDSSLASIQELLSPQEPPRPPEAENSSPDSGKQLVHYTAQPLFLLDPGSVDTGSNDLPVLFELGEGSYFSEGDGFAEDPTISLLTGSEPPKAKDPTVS
run description: ATG_HSE_CIS: Attagene CIS-FACTORIAL HepG2 Assay for human Heat Shock Transcription Factor 1 (HSE) (AID 2282953)
test settings: HepG2 HSE cis-reporter, Attagene RNA transcription; actives raise or lower the signal
Activity calls are given as the source filed them. How the source made its calls: active means hit-call score of the fitted dose curve at least 0.9, where 1 is the maximum; inactive means score below 0.9.
One label from this list, please: active, inactive

Worked set:
[[record]]
molecule = "O=C=NCc1cccc(CN=C=O)c1"
group = "inactive"

[[record]]
molecule = "Cc1ccc(O)cn1"
group = "inactive"

[[record]]
molecule = "Cc1cc(C)c(O)c(C(C)(C)C)c1"
group = "inactive"


Outcome? "CC(C)(C)C(=O)C1C(=O)c2ccccc2C1=O"
inactive

Returns: the outcome recorded for "O=S(=O)(O)c1ccc(Cl)cc1" in this assay.
inactive

Any idea what this test logged for "CCCCOC(=O)[C@H](C)O" ?
inactive

Just curious, what result did CO[Si](CCCOCC1CO1)(OC)OC (configuration not stated) get here?
inactive

Any idea what this test logged for "C=CCOC(=O)CC(C)C" ?
inactive

Field: outcome | Entry: "Cc1ccc(S(=O)(=O)C(I)I)cc1"
active

====

The following compounds are shown together with reported AC50 values.
Test system: DIO1 (gene 1733)
run description: CCTE_GLTED_hDIO1: CCTE's human Deiodinase 1 (DIO1) Inhibition Assay, Great Lakes Toxicology and Ecology Division (GLTED) Lab (AID 2283987);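 further: isolated human DIO1 enzyme in a cell-free setup rather than cells; enzyme activity read as free iodide liberated from substrate via Sandell-Kolthoff colorimetry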
Description: CCTE_GLTED_hDIO1 is a cell-free, single-readout assay designed to test the inhibitory activity of chemicals toward human iodothyronine Deiodinase type 1 (DIO1) enzyme. […] Free iodide is measured in a second step using the Sandell-Kolthoff method.CCTE_GLTED_hDIO1 is the assay component measured from the CCTE_GLTED_hDIO1 assay. […] This assay endpoint, CCTE_GLTED_hDIO1, was analyzed in the positive analysis fitting direction relative to DMSO as the negative control and baseline of activity. […]
Records with an inconclusive call do not appear. Active and inactive are the calls of the source. How the source made its calls: active means hit-call score of the fitted dose curve at least 0.9, where 1 is the maximum; inconclusive means response in the unintended direction; inactive means score below 0.9.

See these solved cases before continuing.
[[record]]
entry_smiles = "C=CC(=O)OCC(F)(F)C(F)(F)C(F)(F)COC(=O)C=C"
recorded_value = "19.6 µM (active)"

[[record]]
entry_smiles = "CCCCCCCCn1sc(Cl)c(Cl)c1=O"
recorded_value = "0.411 µM (active)"

[[record]]
entry_smiles = "CCCCCCCCCCCCCC[P+](CCCC)(CCCC)CCCC"
recorded_value = "11.5 µM (active)"


Value wanted: AC50 (DIO1 (gene 1733)) of entry "NS(=O)(=O)C(F)(F)C(F)(F)C(F)(F)C(F)(F)C(F)(F)C(F)(F)F"
44.3 µM (active)

====

Read-out: Macrophage colony-stimulating factor (MCSF), CSF1 (gene 1435)
run description: BSK_CASM3C_MCSF: BioMAP Diversity Plus: CASM3C Assay for Macrophage colony-stimulating factor (MCSF) Biomarker Activity (AID 2283044);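 further: M-CSF protein amount quantified by ELISA after 24 h exposure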
test settings: primary human coronary artery smooth muscle cells; actives raise or lower the signal
Calls of active or inactive are those of the source. The calls were made as follows: active = hit-call score of the fitted dose curve at least 0.9, where 1 is the maximum; inactive = score below 0.9.
measurement type: AC50

[[record]]
compound = "O=S(=O)(O)CCC(F)(F)C(F)(F)C(F)(F)C(F)(F)C(F)(F)C(F)(F)C(F)(F)C(F)(F)F"
measurement_type = "AC50"
recorded_value = "inactive"

[[record]]
compound = "NC(=O)C(F)(F)C(F)(F)C(F)(F)F"
measurement_type = "AC50"
recorded_value = "inactive"

[[record]]
compound = "OCC(F)(F)C(F)(F)C(F)(F)C(F)(F)C(F)(F)C(F)(F)CO"
measurement_type = "AC50"
recorded_value = "inactive"

[[record]]
compound = "CCOC(C=C(C)CCC=C(C)C)OCC"
measurement_type = "AC50"
recorded_value = "20 µM (active)"

[[record]]
compound = "NCC(F)(F)C(F)(F)C(F)(F)C(F)(F)C(F)(F)C(F)(F)C(F)(F)C(F)(F)F"
measurement_type = "AC50"
recorded_value = "inactive"

[[record]]
compound = "CC1=CC2C3C=CC(C3)C2C1C (centres undefined)"
measurement_type = "AC50"
recorded_value = "inactive"

[[record]]
compound = "Cc1ccc(O)c(-n2nc3ccccc3n2)c1"
measurement_type = "AC50"
recorded_value = "inactive"

[[record]]
compound = "O=C1c2c(O)ccc(Nc3ccc(CCO)cc3)c2C(=O)c2c([N+](=O)[O-])ccc(O)c21"
measurement_type = "AC50"
recorded_value = "inactive"

[[record]]
compound = "O=C(F)C1(F)C(F)(F)C(F)(F)C(F)(F)C(F)(F)C1(F)F"
measurement_type = "AC50"
recorded_value = "inactive"

[[record]]
compound = "NC(=O)C(F)(F)C(F)(F)C(F)(F)C(F)(F)C(F)(F)C(F)(F)C(F)(F)F"
measurement_type = "AC50"
recorded_value = "inactive"


So what's the measured AC50 for this one? CC(C)CCCC(C)CCO (centres undefined)
32.3 µM (active)

Request the reported AC50 associated with "O=C(O)CCC(F)(F)C(F)(F)C(F)(F)F"
inactive

Name the recorded AC50 for FC(F)(F)C(F)(F)C(F)(F)CC1CO1 (centres undefined) .
inactive

GET /values?readout=AC50&item= "Cc1cc(C)c(O)c(C(C)(C)C)c1"
22.7 µM (active)

====

Read-out: Monokine induced gamma interferon (MIG), CXCL9 (gene 4283)
run description: BSK_3C_MIG: BioMAP Diversity Plus: 3C Assay for Monokine induced gamma interferon (MIG) Biomarker Activity (AID 2283021)
test settings: primary human endothelial cells (HUVEC); actives raise or lower the signal
Active and inactive are the calls of the source. How the source made its calls: active means hit-call score of the fitted dose curve at least 0.9, where 1 is the maximum; inactive means score below 0.9.
Your response should consist of one outcome taken from active, inactive

Would you mind telling me which call this test gave "C[C@]12CC[C@H]3C(=CCc4cc(O)ccc43)[C@@H]1CCC2=O" ?
inactive

Test call for this molecule, please: "OCCCCC(F)(F)C(F)(F)C(F)(F)C(F)(F)F"
inactive

For "NCC(F)(F)C(F)(F)C(F)(F)C(F)(F)C(F)(F)C(F)(F)F" , what call appears in the results of this test?
inactive

Tell me the assay call for "Cc1ccc(O)c(-n2nc3ccccc3n2)c1" please.
inactive

Answer briefly: the call reported for "O=C1c2c(O)ccc(Nc3ccc(CCO)cc3)c2C(=O)c2c([N+](=O)[O-])ccc(O)c21" in this assay.
active

Recorded test outcome, item CC1=CC2C3C=CC(C3)C2C1C (stereo unspecified)
inactive

Fill in: this test's call for "CCN(CC)c1ccc(C=O)c(O)c1" is ___
inactive

====

Read-out: Vascular cell adhesion molecule 1 (VCAM1), VCAM1 (gene 7412)
run description: BSK_hDFCGF_VCAM1: BioMAP Diversity Plus: hDFCGF Assay for Vascular cell adhesion molecule 1 (VCAM1) Biomarker Activity (AID 2283065)
test settings: primary human foreskin fibroblasts; actives raise or lower the signal
Activity calls are given as the source filed them. The calls were made as follows: active = hit-call score of the fitted dose curve at least 0.9, where 1 is the maximum; inactive = score below 0.9.
Please state which outcome applies, choosing from active, inactive

[[record]]
molecule = "O=S(=O)(O)CCC(F)(F)C(F)(F)C(F)(F)C(F)(F)F"
group = "inactive"

[[record]]
molecule = "Cc1cc(O)c(C(C)(C)C)cc1C(C)(C)C"
group = "active"

[[record]]
molecule = "OCCCCC(F)(F)C(F)(F)C(F)(F)C(F)(F)F"
group = "inactive"

[[record]]
molecule = "NC(O)(C(F)(F)F)C(F)(F)F"
group = "inactive"

[[record]]
molecule = "NCC(F)(F)C(F)(F)C(F)(F)C(F)(F)C(F)(F)C(F)(F)C(F)(F)C(F)(F)F"
group = "inactive"

[[record]]
molecule = "NC(=O)C(F)(F)C(F)(F)C(F)(F)F"
group = "inactive"

[[record]]
molecule = "CN(C(=O)C(F)(F)C(F)(F)C(F)(F)F)[Si](C)(C)C"
group = "inactive"

[[record]]
molecule = "O=C(O)C(F)(F)OC(F)(F)C(F)(F)OC(F)(F)C(F)(F)OC(F)(F)F"
group = "inactive"

[[record]]
molecule = "CCN(CC)c1ccc2c(c1)Oc1cc(N(CC)CC)ccc1C21OC(=O)c2ccccc21"
group = "inactive"

[[record]]
molecule = "O=C(O)C(F)(F)C(F)(F)C(F)(F)OC(F)(F)F"
group = "inactive"


What is the recorded call for this molecule in the test? "CO[Si](C)(CCC(F)(F)C(F)(F)C(F)(F)C(F)(F)C(F)(F)C(F)(F)F)OC"
inactive

Outcome? "O=C(Cl)C(F)(F)C(F)(F)C(F)(F)C(F)(F)C(F)(F)C(F)(F)F"
inactive

For FC(F)(F)C(F)(F)C(F)(F)CC1CO1 (stereo not given) , what call appears in the results of this test?
inactive

# lookup: test call for CC(C)CCCC(C)CCO (stereo not given)
inactive

Which result was noted for this molecule in the test: "CCOC(=O)CC(=O)C(F)(F)C(F)(F)F"
inactive

What call does the record list for "OC(O)C(F)(F)C(F)(F)F" ?
inactive

Assay outcome for "Brc1nc2ccccc2s1" : what was it?
inactive

# lookup: test call for "O=C(Cl)C(F)(F)C(F)(F)C(F)(F)C(F)(F)C(F)(F)C(F)(F)C(F)(F)F"
inactive

Kindly provide the recorded test outcome for the following molecule: "Cc1ccc(S(=O)(=O)C(I)I)cc1"
active

I would be grateful if you could indicate the recorded call for "O=S(=O)(O)CCC(F)(F)C(F)(F)C(F)(F)C(F)(F)C(F)(F)C(F)(F)C(F)(F)C(F)(F)F" .
inactive
